Molecular target: unrelated Fc-fused recombinant protein (negative control)
Assay: ELISA, bacterial lysate on plate-bound antigen, luminescence
Label True when ELISA Fc Control (RLU) >= 500 RLU; otherwise False.

# example entries with known answers
[
  {
    "BINDER": "ISOP120HR5P1H8 (designed binder, not shown: small tags and cut ends, FN3 domain (Centyrin); tested as E. coli lysate) LPAPKNLVVSRVTEDSARLSWTAPDAAFDSFDIYYYELRLGGEAIVLTVPGSERSYDLTGLKPGTEYLVTIYGVKGGYYSGPLSAIFTT",
    "CLASS_NAME": "False"
  },
  {
    "BINDER": "ISOP120FR5P1A11 (designed binder, not shown: small tags and cut ends, FN3 domain (Centyrin); tested as E. coli lysate) LPAPKNLVVSRVTEDSARLSWTAPDAAFDSFTIYYFENENGGEAIVLTVPGSERSYDLTGLKPGTEYLVTIYGVKGGHWSRPLSAIFTT",
    "CLASS_NAME": "False"
  },
  {
    "BINDER": "ISOP120AR5P1G7 (designed binder, not shown: small tags and cut ends, FN3 domain (Centyrin); tested as E. coli lysate) LPAPKNLVVSRVTEDSARLSWSQHYLSPIPFDSFLIQYQESEKVGEAIVLTVPGSERSYDLTGLKPGTEYTVSIYGVGRHYTVYDSNPLSAIFTT",
    "CLASS_NAME": "True"
  },
  {
    "BINDER": "ISOP120AR5P1H3 (designed binder, not shown: small tags and cut ends, FN3 domain (Centyrin); tested as E. coli lysate) LPAPKNLVVSRVTEDSARLSWKWISHEPLEFDSFLIQYQESEKVGEAIVLTVPGSERSYDLTGLKPGTEYTVSIYGVGRHYTVYDSNPLSAIFTT",
    "CLASS_NAME": "False"
  },
  {
    "BINDER": "ISOP120HR5P1F9 (designed binder, not shown: small tags and cut ends, FN3 domain (Centyrin); tested as E. coli lysate) LPAPKNLVVSRVTEDSARLSWTAPDAAFDSFYIYYREHWTIGEAIVLTVPGSERSYDLTGLKPGTEYLVTIYGVKGGAYSNPLSAIFTT",
    "CLASS_NAME": "False"
  },
  {
    "BINDER": "ISOP120GR5P1A11 (designed binder, not shown: small tags and cut ends, FN3 domain (Centyrin); tested as E. coli lysate) LPAPKNLVVSRVTEDSARLSWTAPDAAFDSFGIPYWEWTTEGEAIQLIVPGSERSYDLTGLKPATEYHVHIVGVKGGSFSEPLPADFTT",
    "CLASS_NAME": "False"
  },
  {
    "BINDER": "ISOP120HR5P1A6 (designed binder, not shown: small tags and cut ends, FN3 domain (Centyrin); tested as E. coli lysate) LPAPKNLVVSRVTEDSARLSWTAPDGAFDSFEIYYLEGGRGEAIVLTVPGSERSYDLTGLKPGTEYLVTIYGIKCGWASNPLSAIFTT",
    "CLASS_NAME": "True"
  },
  {
    "BINDER": "ISOP120BR5P1C9 (designed binder, not shown: small tags and cut ends, FN3 domain (Centyrin); tested as E. coli lysate) LPAPKNLVVSRVTEDSARLSWAWNRHDFDSFLIQYQESEKVGEAIVLTVPGSERSYDLTGLKPGTEYTVSIYGVHWTVLRPFIDSNPLSAIFTT",
    "CLASS_NAME": "False"
  },
  {
    "BINDER": "ISOP120BR5P1B9 (designed binder, not shown: small tags and cut ends, FN3 domain (Centyrin); tested as E. coli lysate) LPAPKNLVVSRVTEDSARLSWAVEFNPTKFDSFLIQYQESEKVGEAIVLTVPGSERSYDLTGLKPGTEYTVSIYGVWWFEQWYPVSNPLSAIFTT",
    "CLASS_NAME": "True"
  },
  {
    "BINDER": "ISOP120HR5P1A7 (designed binder, not shown: small tags and cut ends, FN3 domain (Centyrin); tested as E. coli lysate) LPAPKNLVVSRVTEDSARLSWTAPDAAFDSFEIYYAEPRYYGEAIVLTVPGSERSYDLTGLKPGTEYTVTIYGVKGGYYSSPLSAIFTT",
    "CLASS_NAME": "False"
  }
]

Incoming: Confirm if ELISA Fc Control (RLU) reported for the binder ISOP120AR5P1G8 (designed binder, not shown: small tags and cut ends, FN3 domain (Centyrin); tested as E. coli lysate) LPAPKNLVVSRVTEDSARLSWHATFGDPFDSFLIQYQESEKVGEAIVLTVPGSERSYDLTGLKPGTEYTVSIYGVGRHYTVYDSNPLSAIFTT is 500 RLU or above.
Outgoing: False

Incoming: Reported ELISA Fc Control (RLU) at or above 500 RLU? ISOP120BR5P1D8 (designed binder, not shown: small tags and cut ends, FN3 domain (Centyrin); tested as E. coli lysate) LPAPKNLVVSRVTEDSARLSWKNHTQEWEFDSFLIQYQESEKVGEAIVLTVPGSERSYDLTGLKPGTEYTVSIYGVPIAWLAWTSTSNPLSAIFTT
Outgoing: False

Incoming: Reported ELISA Fc Control (RLU) reaches at least 500 RLU for ISOP120BR5P1D3 (designed binder, not shown: small tags and cut ends, FN3 domain (Centyrin); tested as E. coli lysate) LPAPKNLVVSRVTEDSARLSWSEHPTPFATFDSFLIQYQESEKVGEAIVLTVPGSERSYDLTGLKPGTEYTVSIYGVWWVENHFPVSNPLSAIFTT ?
Outgoing: False

Incoming: Form field: ELISA Fc Control (RLU) at least 500 RLU? Entry: ISOP120HR5P1D7 (designed binder, not shown: small tags and cut ends, FN3 domain (Centyrin); tested as E. coli lysate) LPAPKNLVVSRVTEDSARLSWTAPDAAFDSFDIYYLESWTRGEAIVLTVPGSERSYDLTGLKPGTEYLVTIYGVKGGSYSRPLSAIFTT
Outgoing: False

Incoming: Is it the case that ISOP120HR5P1D9 (designed binder, not shown: small tags and cut ends, FN3 domain (Centyrin); tested as E. coli lysate) LPAPKNLVVSRVTEDSARLSWTAPDAAFDSFDIYYRELDFQGEAIVLTVPGSERSYDLTGLKPGTEYLVIIYGVKGGSYSYTLSAIFTT has ELISA Fc Control (RLU) reaching or exceeding 500 RLU?
Outgoing: False

Incoming: Given ISOP120FR5P1H5 (designed binder, not shown: small tags and cut ends, FN3 domain (Centyrin); tested as E. coli lysate) LPAPKNLVVSRVTEDSARLSWTAPDAAFDSLQIYYFEWVVGGEAIVLTVPGSERSYDLTGLKLGTEYLVTIYGVKGGNFSDPLSAIFTT , state whether its ELISA Fc Control (RLU) is at least 500 RLU.
Outgoing: False

Incoming: Threshold query (ELISA Fc Control (RLU) >= 500 RLU) on ISOP120AR5P1F11 (designed binder, not shown: small tags and cut ends, FN3 domain (Centyrin); tested as E. coli lysate) LPAPKNLVVSRVTEDSARLSWTNEQITKYGFDSFLIQYQESEKVGEAIVLTVPGSERSYDLTGLKPATEYTVSIYGVGRHYTVYDSNPLSAIFTT
Outgoing: False
